tested on: hepatocellular carcinoma cell HepG2; assay: MTT in vitro cell growth inhibition, hepatocellular carcinoma cell HepG2 (48 h); format: cell-based; settings: Homo sapiens, HepG2 cells
Result Type: IC50 (nM)
Numbers only; they are read as nM.

In: Entry under review: COC(=O)C[C@](O)(CCc1cccc(N)c1)C(=O)O[C@@H]1C(OC)=C[C@]23CCCN2CCc2cc4c(cc2[C@H]13)OCO4 [Compound I-2-5] . Reported IC50?
Out: 40

In: Entry under review: COC(=O)C[C@](O)(CCc1ccc(OC)cc1)C(=O)O[C@@H]1C(OC)=C[C@]23CCCN2CCc2cc4c(cc2[C@H]13)OCO4 [Compound I-2-45] . Reported IC50?
Out: 17

In: Entry under review: COC(=O)C[C@@](O)(CCc1cccc([N+](=O)[O-])c1)C(=O)O[C@@H]1C(OC)=C[C@]23CCCN2CCc2cc4c(cc2C13)OCO4 (stereo partly drawn) [Compound I-2-2] . Reported IC50?
Out: 29

----------
Would you mind telling me the reported pIC50 of each entry?
tested on: human colon cancer cells HCT-116; assay: MTT in vitro cell growth inhibition, human colon cancer cells HCT-116 (48 h); assay type: cell-based; details: HCT116 cells
Please keep in mind that pIC50 is minus log10 of the molar concentration; only the number is needed.

In: I'm curious: which pIC50 was measured for C=CC(=O)O/N=C/CC(O)(CCC(C)C)C(=O)O[C@@H]1C(OC)=C[C@]23CCCN2CCc2cc4c(cc2[C@H]13)OCO4 (some centres unmarked) tested on human colon cancer cells HCT-116?
Out: 7.32

In: I'm curious: which pIC50 was measured for COC(=O)C[C@](O)(CCCC(C)(C)O)C(=O)O[C@@H]1C(OC)=C[C@]23CCCN2CCc2cc4c(cc2[C@H]13)OCO4 [HHT, homoharringtonine, reference compound] tested on human colon cancer cells HCT-116?
Out: 7.59

In: I'm curious: which pIC50 was measured for CCCCC(O)(C/C=N\OC(=O)C(C)C)C(=O)O[C@@H]1C(OC)=C[C@]23CCCN2CCc2cc4c(cc2[C@H]13)OCO4 (some centres unmarked) tested on human colon cancer cells HCT-116?
Out: 7.62

In: I'm curious: which pIC50 was measured for COC1=C[C@]23CCCN2CCc2cc4c(cc2[C@@H]3[C@@H]1OC(=O)C(O)(CCC(C)C)CC(=O)SC)OCO4 (some centres unmarked) tested on human colon cancer cells HCT-116?
Out: 7.34

In: I'm curious: which pIC50 was measured for CCCCC(O)(C/C=N\OC(C)=O)C(=O)O[C@@H]1C(OC)=C[C@]23CCCN2CCc2cc4c(cc2[C@H]13)OCO4 (some centres unmarked) tested on human colon cancer cells HCT-116?
Out: 7.16

In: I'm curious: which pIC50 was measured for COC1=C[C@]23CCCN2CCc2cc4c(cc2[C@@H]3[C@@H]1OC(=O)C(O)(C/C=N\OC(C)=O)CCC(C)C)OCO4 (some centres unmarked) tested on human colon cancer cells HCT-116?
Out: 7.80

In: I'm curious: which pIC50 was measured for COC1=C[C@]23CCCN2CCc2cc4c(cc2[C@@H]3[C@@H]1OC(=O)C(O)(C/C=N/OC(=O)[C@H](C)c1ccc2cc(OC)ccc2c1)CCc1ccc2c(c1)CCO2)OCO4 (some centres unmarked) tested on human colon cancer cells HCT-116?
Out: 7.59

In: I'm curious: which pIC50 was measured for COC1=C[C@]23CCCN2CCc2cc4c(cc2[C@@H]3[C@@H]1OC(=O)C(O)(C/C=N\OC(=O)C(C)C)CCC(C)C)OCO4 (some centres unmarked) tested on human colon cancer cells HCT-116?
Out: 7.15
